# experimentalProtocol: chemical genetic growth profiling, strain panel (AID 1159580);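 further: tested at 20 µM; growth read once vehicle control cultures reached saturation at 30 °C; 1 = growth at the plate median or of vehicle wells; lower values mean less growth of the strain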
# conditionDetails: S. cerevisiae deletion strains, growth OD, locus YJL115W, strain asf1
Among all 5,500 compounds or so, about 2,000 (36%) were called active. Another 18% or so got no clear call; they are omitted. No stated cut-off is given here; in the data, active means normalized growth mostly below about 0.91 (no sharp cut-off); inconclusive means no clear call, values can overlap the other calls; inactive means mostly above about 0.92. Some of the results follow.
Write down the outcome that applies. Available outcomes: active, inactive

INSERT INTO measurements (compound, grouplabel) VALUES
  ('OC[C@H]1O[C@@H](Oc2ccc(O)cc2)[C@H](O)[C@@H](O)[C@@H]1O', 'inactive'),
  ('CN1CCCCC1c1ccc(-c2cccnc2)nc1 (stereo not given)', 'inactive'),
  ('O=C(/C=C/c1ccccc1)c1ccc(O)cc1O', 'active'),
  ('CCCCCCCCCCCCCCCC(=O)OC[C@H](NC(=O)C(Cl)Cl)[C@H](O)c1ccc([N+](=O)[O-])cc1', 'inactive');

Test call, this compound: O=C(N[C@@H](CO)[C@H](O)c1ccc([N+](=O)[O-])cc1)C(Cl)Cl
inactive

###

# experimentalProtocol: chemical genetic growth profiling, strain panel (AID 1159580);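 further: tested at 20 µM; growth read once vehicle control cultures reached saturation at 30 °C; 1 = growth at the plate median or of vehicle wells; lower values mean less growth of the strain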
# conditionDetails: S. cerevisiae deletion strains, growth OD, locus YDR195W, strain ref2
The whole screen tested about 5,500 compounds, of which about 2,000 (36%) were called active. Another 18% or so got no clear call; they are omitted. Cut-off read from the data, not from the text of the source: active = normalized growth mostly below about 0.91 (no sharp cut-off); inconclusive = no clear call, values can overlap the other calls; inactive = mostly above about 0.92. This is one part of the list.
Write down the outcome that applies. Available outcomes: t for active, f for inactive

INSERT INTO assay_data (compound, grouplabel) VALUES
  ('O=c1c(O)c(-c2ccc(O)cc2)oc2ccccc12', 't');

Test call, this compound: C=C[C@H]1CN2CC[C@H]1C[C@H]2[C@H](O)c1ccnc2ccccc12
f

Test call, this compound: O=c1c(O)c(-c2ccccc2)oc2ccc3occc3c12
t

Test call, this compound: COc1ccc(NS(=O)(=O)c2ccc(N)cc2)nn1
f

###

# experimentalProtocol: chemical genetic growth profiling, strain panel (AID 1159580);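 further: tested at 20 µM; growth read once vehicle control cultures reached saturation at 30 °C; 1 = growth at the plate median or of vehicle wells; lower values mean less growth of the strain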
# conditionDetails: S. cerevisiae deletion strains, growth OD, locus YDL017W, strain CDC7
The whole screen tested about 5,500 compounds, of which about 2,000 (36%) were called active. Roughly 18% stayed inconclusive and do not appear here. No stated cut-off is given here; in the data, active means normalized growth mostly below about 0.91 (no sharp cut-off); inconclusive means no clear call, values can overlap the other calls; inactive means mostly above about 0.92. The list shows a part of the results.
Write down the outcome that applies. Available outcomes: Yes for active, No for inactive

INSERT INTO results (molecule, grouplabel) VALUES
  ('CC1SC(c2cccnc2)N(c2ccc(F)cc2F)C1=O (configuration not stated)', 'No');

Test call, this molecule: CCOC(=O)c1cnc(-c2ccccn2)[nH]c1=O
No

Test call, this molecule: CC1SC(c2cccnc2)N(c2ccc(Cl)cc2)C1=O (configuration not stated)
No

Test call, this molecule: O=C(Nc1ccc(F)cc1F)c1cc(Cl)ccc1O
No

###

In this section we review reported normalized growth values for a set of compounds.
# experimentalProtocol: chemical genetic growth profiling, strain panel (AID 1159580);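 further: tested at 20 µM; growth read once vehicle control cultures reached saturation at 30 °C; 1 = growth at the plate median or of vehicle wells; lower values mean less growth of the strain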
# conditionDetails: S. cerevisiae deletion strains, growth OD, locus YPR111W, strain DBF20, hits give low values
Screen size: about 5,500 compounds; about 2,000 (36%) were called active. Roughly 18% stayed inconclusive and do not appear here. The list shows a part of the results.
Format: numeric value only, no unit, no commentary.

# example entries with known answers
INSERT INTO assay_data (compound, quantitativereadout) VALUES
  ('CCOC(=O)c1cnc(-c2ccccn2)[nH]c1=O', 0.939),
  ('O=C(/C=C/c1ccc(Cl)cc1)Nc1cccc(Cl)c1', 0.942),
  ('O=C(Nc1cc(Cl)cc(Cl)c1)c1cc(Cl)ccc1O', 0.95);

Bench note: what normalized growth did CC(C)Sc1c(Cl)cccc1NC(=O)Nc1cccc(C(F)(F)F)c1 show?
0.974

Bench note: what normalized growth did Cn1ncc(-c2nc(-c3ccc(Cl)cc3)cs2)c1N show?
0.959

Bench note: what normalized growth did N#CC(C(=O)Nc1cccc(C(F)(F)F)c1)C(=S)Nc1ccccc1Cl (stereo unspecified) show?
0.784
